measured-on: bovine OBP (6-His-bOBP) (Bos taurus)
Construct: domain-swapped homodimer
Sequence (P07435 whole entry): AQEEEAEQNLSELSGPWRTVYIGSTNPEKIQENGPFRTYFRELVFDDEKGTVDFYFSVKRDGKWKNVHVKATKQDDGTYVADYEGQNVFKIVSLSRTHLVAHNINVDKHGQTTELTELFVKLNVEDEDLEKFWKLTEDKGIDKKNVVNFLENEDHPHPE
test-details: direct fluorescence titration
measure-name: Kd (nM)
Your answer should be a plain number; it is taken to be in nM.

Problem: Annotate the molecule Nc1cccc2cc3ccccc3cc12 with its measured Kd.
Result: 720

###

measured-on: bovine OBP (6-His-bOBP) (Bos taurus)
Construct: domain-swapped homodimer
test-details: competitive displacement of 1-aminoanthracene, fluorescence
test-context: read-out: Kdapp
measure-name: pIC50
Field pIC50 (float): negative decimal logarithm of the concentration in molar.

Problem: Annotate the compound CC(C)=CCC/C(C)=C/CC/C(C)=C/CO [farnesol] with its measured pIC50.
Result: 5.43

Origin of values: paper PMC6430387
